Molecular target: PfA-M17 (Plasmodium falciparum, UniProt Q8IL11)
Sequence (Q8IL11 84-605 limits assumed): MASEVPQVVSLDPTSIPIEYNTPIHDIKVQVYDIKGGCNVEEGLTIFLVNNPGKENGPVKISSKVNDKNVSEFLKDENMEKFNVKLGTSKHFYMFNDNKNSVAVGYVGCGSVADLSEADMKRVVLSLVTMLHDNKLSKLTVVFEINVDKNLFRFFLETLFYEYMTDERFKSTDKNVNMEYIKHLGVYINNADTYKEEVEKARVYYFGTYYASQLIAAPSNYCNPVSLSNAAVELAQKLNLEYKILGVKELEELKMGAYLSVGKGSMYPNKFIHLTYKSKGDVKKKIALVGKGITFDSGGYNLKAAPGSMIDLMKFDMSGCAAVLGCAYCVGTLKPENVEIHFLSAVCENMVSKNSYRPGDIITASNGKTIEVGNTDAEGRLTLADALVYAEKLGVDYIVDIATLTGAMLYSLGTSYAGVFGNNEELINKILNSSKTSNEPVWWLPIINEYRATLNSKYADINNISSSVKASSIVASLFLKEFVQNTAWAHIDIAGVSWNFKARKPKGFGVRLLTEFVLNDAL
property: Ki (µM)

| compound | u | Ki |
| --- | --- | --- |
| COc1cc(-c2nc(-c3ccccc3)c(-c3ccccc3)[nH]2)cc(OC)c1O [MMV020750] | µM | 12 |
| c1ccc(Cn2c(/N=N/c3c(Nc4ccccc4)ccc4ccccc34)nc3ccccc32)cc1 [MMV666023] | µM | 23 |

[A] COC(=O)c1ccc(-c2nc(-c3ccccc3)c(-c3ccccc3)[nH]2)cc1 [Compound 3]
[B] O=C(NO)c1ccc(-c2nc(-c3ccccc3)c(-c3ccccc3)[nH]2)cc1 [Compound 5]
Min Ki? A | B Answer by quoting the chosen item's label.
B

* * *

molecular target: PfA-M1 (Plasmodium falciparum); construct: made in house; host or cells: Escherichia coli; test: Secondary screening against individual enzyme; type: biochemical; conditions: 100 μM compound, n = 3
Sequence (O96935 195-1085 limits assumed): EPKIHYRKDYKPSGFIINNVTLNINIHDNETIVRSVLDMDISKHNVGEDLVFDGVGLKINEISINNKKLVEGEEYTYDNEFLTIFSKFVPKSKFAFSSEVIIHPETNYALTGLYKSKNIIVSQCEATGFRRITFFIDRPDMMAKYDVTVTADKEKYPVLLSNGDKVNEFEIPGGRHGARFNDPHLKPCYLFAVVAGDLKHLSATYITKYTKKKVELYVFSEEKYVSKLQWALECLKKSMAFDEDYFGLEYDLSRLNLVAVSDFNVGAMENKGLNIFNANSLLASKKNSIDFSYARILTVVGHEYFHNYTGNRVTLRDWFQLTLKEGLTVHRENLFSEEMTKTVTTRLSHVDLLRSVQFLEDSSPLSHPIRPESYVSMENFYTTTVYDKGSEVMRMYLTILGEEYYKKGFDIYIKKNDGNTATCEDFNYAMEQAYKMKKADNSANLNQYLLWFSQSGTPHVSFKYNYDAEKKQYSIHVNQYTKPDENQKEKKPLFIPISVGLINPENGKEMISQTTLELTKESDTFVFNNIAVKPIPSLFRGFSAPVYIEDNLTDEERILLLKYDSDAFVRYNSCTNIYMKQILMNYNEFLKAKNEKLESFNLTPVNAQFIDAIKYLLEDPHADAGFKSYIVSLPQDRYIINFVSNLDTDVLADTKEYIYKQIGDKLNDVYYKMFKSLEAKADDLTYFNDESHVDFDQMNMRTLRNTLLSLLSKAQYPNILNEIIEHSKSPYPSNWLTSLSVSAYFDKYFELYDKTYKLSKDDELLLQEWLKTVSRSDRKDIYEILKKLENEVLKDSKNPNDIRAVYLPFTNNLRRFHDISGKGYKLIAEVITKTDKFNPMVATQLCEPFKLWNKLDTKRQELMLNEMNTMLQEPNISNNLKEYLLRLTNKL
property: reduction of PfA-M1 activity (%)

| compound | readout_number |
| --- | --- |
| c1ccc(Cn2c(/N=N/c3c(Nc4ccccc4)ccc4ccccc34)nc3ccccc32)cc1 [MMV666023] | 95 |
| Cc1cccc(-n2ncc3c(O)nc(-n4nc(C)cc4NC(=O)c4cc5ccccc5o4)nc32)c1 [MMV403679] | 75 |
| COc1ccc(C(=O)NC(c2ccc(Cl)cc2Cl)c2cc(Cl)c3cccnc3c2O)cc1 (stereo not shown) [MMV666054] | 87 |
| Cc1cccc(N2C(=O)C3C(C2=O)C2(c4ccccc4)C(=O)C3(c3ccccc3)C(c3ccc4c(c3)OCO4)=C2c2ccc3c(c2)OCO3)c1 (stereo not shown) [MMV007228] | 89 |

* * *

target: PfA-M1 (Plasmodium falciparum); construct: made in house; host or cells: Escherichia coli; experiment: Determination of Ki values (Dixon plots, H-Leu-NHMec); format: biochemical; details: Dixon plot; read-out: Ki PfA-M1
property: Ki (µM)

| compound | study_system | Ki [µM] |
| --- | --- | --- |
| c1ccc(Cn2c(/N=N/c3c(Nc4ccccc4)ccc4ccccc34)nc3ccccc32)cc1 [MMV666023] | PfA-M1 (Plasmodium falciparum) | 4.5 |

[1] O=C(O)c1ccc(-c2nc(-c3ccccc3)c(-c3ccccc3)[nH]2)cc1 [Compound 4]
[2] O=C(NO)c1ccc(-c2nc(-c3ccccc3)c(-c3ccccc3)[nH]2)cc1 [Compound 5]
[3] COC(=O)c1ccc(-c2nc(-c3ccccc3)c(-c3ccccc3)[nH]2)cc1 [Compound 3]
[4] COc1cc(-c2nc(-c3ccccc3)c(-c3ccccc3)[nH]2)cc(OC)c1O [MMV020750]
Put the items in sequence by Ki, from largest down. Output the labels ranked as instructed.
3, 4, 2, 1
(3: 120 µM, 4: 75 µM, 2: 34 µM, 1: 5.2 µM)

Each recorded value in this set is attributed to paper PMC4336144.
